Some molecules, each annotated with its measured melting point.
Measurement Label: melting point

molecule="Nc1nnn(C2CN3CCC2CC3)n1 (stereo not given)" recorded_value="132 to 134 °C"
molecule=C=CCC(CC)(CC=C)C(=O)O[C@H]1C[C@H](O)C=C2C=C[C@H](C)[C@H](CC[C@@H]3C[C@@H](O)CC(=O)O3)[C@H]21 recorded_value="99 to 100 °C"
molecule=COc1ccc(-c2n[nH]cc2C(=O)N2CCOCC2)cc1OC recorded_value="122 °C"
molecule=CCNc1nc(C#N)c(C#N)nc1-c1cccc(F)c1 recorded_value="126 to 127 °C"
molecule=O=C(O)c1ccc(Oc2ccccc2Oc2ccc(C(=O)O)cc2)cc1 recorded_value="255 to 257 °C"
